Tested on: MS2 coat protein
Test: apparent Kd, MS2 coat protein; higher = weaker binding; RNA-MaP array; FMN 200 µM where present
Details: ligand present: flavin mononucleotide; designed as: OFF switch for flavin mononucleotide
Reported Endpoint: apparent Kd

> print(dat)
                              input.sequence   result
 1  GUAAAUCAUGUAGGAUAUGCAUGGCGAAGCUACGCAGAAGGACAUGAGGAUCACCCAUGUCUGUCCGUCUGCGAACAGACGGAC   174 nM
 2  UAUUAACACGAAGGAUAUGGUUACAUGAGGAUCACCCAUGUAUGUAUAUUGAUCUAGAUUUUUGACCAGAAGGUCGUGAGUAAA  38.2 nM
 3  CUAAAUCAUGUAGGAUAUGCAUGGCGAAGCUACGCAGAAGGACAUGAGGAUCACCCAUGUCACUCCGUCUGCGUACAGACGGAG  92.3 nM
 4  UAUAUGUCAGGAUAUCGAUUGGAGCGGAAUUUAGCUUUGGUCGAGAAGGGACAUGAGGAUCACCCAUGUUCCUC   142 nM
 5  GGGUGACAUGAGGAUCACCCAUGUCAGGAUAUGCGCGCGCGCGCGAAAGUGUGUGUGUGUAGAAGGGACUGCCC  81.2 nM
 6  CGUGCGUCGACAGGAUAUACAGAUUGGCUCCGGUACAUGAGGAUCACCCAUGUAGAAGGGUCACGCGCGGAUAGAACAUUCUAA  40.3 nM
 7  GUAUGCAAGUAGAAGGACGGAUAUUUUGAAAACGUAGGAUAUACAGAAUCAUAUCCACAUGGAUACAUGAGGAUCACCCAUGUA  11.8 nM
 8  GGUGGACAUGAGGAUCACCCAUGUGAGGAUAUCGGCCGGCUAGUGGUGGCUGGCUUCUCGAGAAGGCGCAUAGU  99.7 nM
 9  GUCAGCUCGUGAGGAUAUACAACAAUGCUUCGGCAGUGUAUUAAGAUCACAUGAGGAUCACCCAUGUAGAAGGCACGAGCUGAU  73.7 nM
10  CCUUUCCGAGGAUAUACAUGAGGAUCACCCAUGUGAUCCUAAGGCUGAUCAAGCCUAUGUAGAAGGCGCAAAUC   182 nM
11  CAACUGAGCGUAAAUUACCUGAACAUGAGGAUCACCCAUGUGGAGGAUAUUGACUUAGCAAAACUCGAGAAGGCCACUGGGAUG  18.2 nM
12  UCCGGGUGCCAGAAGGGAGAUGGUUCGGAGGUCUCAGGAUAUGGCACAUGAGGAUCACCCAUGUGUUUACGUAAUUACAUGAGA  21.6 nM
13  GGAUGACAAAGUCAUCCAAUACGAACAUGAGGAUCACCCAUGUAGGAUAUGCAACUCAAAGAGUUGCAGAAGGACAUGUGUCUU   128 nM
14  CUGAUGUGAGGAUAUGUGAUCUGCCUUCUAUGUAGAUGAUCACAGAAGGCACAUGAGGAUCACCCAUGUAGAUC  94.3 nM
15  AAAAGUCGGCAAGGAUAUACAACGGAUUCCCUUGUAGAAGGUGCAGGACAUGAGGAUCACCCAUGUGAUCCGGGUAUAUUGAUG  44.8 nM
